experiment: inhibitors of the yeast RAM network, pilot screen, dse1pr::URA3 reporter, 5-FOA selection (AID 869);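 also: 0% = DMSO wells with no growth and 100% = 10 µM 1-NA-PP1 with full growth; RAM network block rescues cells from 5-FOA so hits raise OD615 growth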; conditions: S. cerevisiae dse1pr::URA3 5-FOA growth, OD615, 2 d; at 10 µM; active compounds read high; strain carries analog-sensitive mutant Cbk1 kinase
Quantity Kind: inhibition (%)
Output spec: scalar in %, unitless text.

Kindly note the recorded inhibition for "COc1cccc(NC2=CC(=O)CC(C)(C)C2)c1" , which is 0.5

Kindly note the recorded inhibition for "CN1CCN(S(=O)(=O)c2ccc(NC(=O)c3cccc(S(=O)(=O)N4CCCC4)c3)cc2)CC1" , which is 2

Kindly note the recorded inhibition for "COc1ccccc1NC(=O)CSc1nnc(Cn2c(=O)sc3ccccc32)n1C" , which is 2.21

Kindly note the recorded inhibition for CCOc1ccc(-n2c(SC(C)C(=O)OC)nc3c(c2=O)SCC3)cc1 (stereo not given) , which is 0.355

Kindly note the recorded inhibition for "COc1ccc(CNc2ccc3cn[nH]c3c2)c(OC)c1OC" , which is -0.465

Kindly note the recorded inhibition for "CCOC(=O)Nc1ccc2c(c1)N(C(=O)N(CC)CC)c1ccccc1CC2" , which is 2.9

Kindly note the recorded inhibition for "c1ccc(Cn2c(CSc3nnnn3-c3ccccc3)nc3ccccc32)cc1" , which is 1.48
